systemUnderTest: hCB2 receptors (Homo sapiens, UniProt P34972)
Construct: expressed in transfected cells
Sequence (P34972 whole entry): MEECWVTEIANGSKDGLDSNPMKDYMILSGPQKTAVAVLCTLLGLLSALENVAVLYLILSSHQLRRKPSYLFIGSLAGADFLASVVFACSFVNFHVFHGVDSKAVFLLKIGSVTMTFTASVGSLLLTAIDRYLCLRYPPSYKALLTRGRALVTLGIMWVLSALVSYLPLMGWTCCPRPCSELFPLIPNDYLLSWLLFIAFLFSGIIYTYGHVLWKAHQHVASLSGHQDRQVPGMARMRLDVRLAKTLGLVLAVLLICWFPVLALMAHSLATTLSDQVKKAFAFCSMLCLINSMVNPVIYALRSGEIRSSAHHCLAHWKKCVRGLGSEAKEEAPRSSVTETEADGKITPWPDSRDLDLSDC
methodNotes: Antagonism of CP-55,940 inhibition of AC activity in intact CHO-hCB2 cells
Assay type: cell-based

# compound, Type of antagonism of CP-55,940
rows = [
    ("CC/C(=C(\\c1ccc(O)cc1)c1ccc(OCCN(C)C)cc1)c1ccccc1 [Z-4OHT, 4-hydroxytamoxifen]", "surmountable antagonism"),
    ("CC/C(=C(\\c1ccccc1)c1ccc(OCCN(C)C)cc1)c1ccccc1 [Z-Tam, tamoxifen]", "surmountable antagonism"),
]

###

systemUnderTest: hCB1 receptors (Homo sapiens)
Sequence (P21554 whole entry): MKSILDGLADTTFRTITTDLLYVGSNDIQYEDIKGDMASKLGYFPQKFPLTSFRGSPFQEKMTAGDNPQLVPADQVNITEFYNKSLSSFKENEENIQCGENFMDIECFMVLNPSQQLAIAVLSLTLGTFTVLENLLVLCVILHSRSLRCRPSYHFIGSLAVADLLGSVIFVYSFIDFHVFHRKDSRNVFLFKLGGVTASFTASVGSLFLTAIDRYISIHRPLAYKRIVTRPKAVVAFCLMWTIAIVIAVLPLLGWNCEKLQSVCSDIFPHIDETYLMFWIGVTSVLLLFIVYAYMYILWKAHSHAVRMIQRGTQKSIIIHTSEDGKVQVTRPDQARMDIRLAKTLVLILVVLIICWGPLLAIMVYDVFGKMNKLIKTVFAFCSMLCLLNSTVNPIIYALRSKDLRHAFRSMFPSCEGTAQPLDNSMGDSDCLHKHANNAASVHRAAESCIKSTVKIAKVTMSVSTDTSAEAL
methodNotes: Competition receptor binding with [3H]CP-55,940, CHO-hCB1 membranes
measurementConditions: Ki, [3H]CP-55,940 binding, CHO-hCB1, 0.2 nM [3H]CP-55,940, CHO-hCB1 membranes

# molecule, Ki
records = [
    ("CC/C(=C(\\c1ccc(O)cc1)c1ccc(OCCN(C)C)cc1)c1ccccc1 [Z-4OHT, 4-hydroxytamoxifen]", "681 nM"),
    ("CC/C(=C(\\c1ccc(O)cc1)c1ccc(OCCNC)cc1)c1ccccc1 [Z-End, 4-hydroxy-N-desmethyl tamoxifen]", "1160 nM"),
    ("CC/C(=C(/c1ccc(O)cc1)c1ccc(OCCNC)cc1)c1ccccc1 [E-End, 4-hydroxy-N-desmethyl tamoxifen]", "1390 nM"),
    ("CC/C(=C(\\c1ccc(O)cc1)c1ccc(OCCN(C)C)cc1)c1ccccc1 [E-4OHT, 4-hydroxytamoxifen]", "1240 nM"),
]

###

systemUnderTest: hCB1 receptors (Homo sapiens)
methodNotes: Antagonism of CP-55,940 inhibition of AC activity in intact CHO-hCB1 cells
Type: cell-based
measurementConditions: CHO-hCB1 cells

# molecule, Type of antagonism of CP-55,940
rows = [
    ("CC/C(=C(\\c1ccc(O)cc1)c1ccc(OCCN(C)C)cc1)c1ccccc1 [Z-4OHT, 4-hydroxytamoxifen]", "surmountable antagonism"),
    ("Cc1c(C(=O)NN2CCOCC2)nn(-c2ccc(Cl)cc2Cl)c1-c1ccc(I)cc1 [AM-281]", "surmountable antagonism"),
    ("CC/C(=C(\\c1ccc(O)cc1)c1ccc(OCCNC)cc1)c1ccccc1 [Z-End, 4-hydroxy-N-desmethyl tamoxifen]", "surmountable antagonism"),
]

###

systemUnderTest: hCB2 receptors (Homo sapiens)
Construct: expressed in transfected cells
methodNotes: Forskolin-stimulated intracellular [3H]cAMP in intact CHO-hCB2 cells
Assay type: cell-based
measurementConditions: forskolin-stimulated cAMP, values only approximate
Marks after values point to notes of the source that are not given here.
Each entry below lists one item and its recorded EMAX, intracellular [3H]cAMP value.
property: EMAX, intracellular [3H]cAMP

# compound, reported
records = [
    ("CC/C(=C(\\c1ccc(O)cc1)c1ccc(OCCNC)cc1)c1ccccc1 [Z-End, 4-hydroxy-N-desmethyl tamoxifen]", "259 ± 18^b %"),
    ("CC/C(=C(\\c1ccccc1)c1ccc(OCCN(C)C)cc1)c1ccccc1 [E-Tam, tamoxifen]", "464 ± 48^a^, ^†† %"),
    ("CC/C(=C(/c1ccc(O)cc1)c1ccc(OCCNC)cc1)c1ccccc1 [E-End, 4-hydroxy-N-desmethyl tamoxifen]", "239 ± 22^b %"),
    ("CC/C(=C(\\c1ccc(O)cc1)c1ccc(OCCN(C)C)cc1)c1ccccc1 [E-4OHT, 4-hydroxytamoxifen]", "352 ± 52^a^,^b %"),
    ("COc1ccc(C(=O)c2c(C)n(CCN3CCOCC3)c3cc(I)ccc23)cc1 [AM-630]", "214 ± 6.5%"),
    ("CC/C(=C(\\c1ccc(O)cc1)c1ccc(OCCN(C)C)cc1)c1ccccc1 [Z-4OHT, 4-hydroxytamoxifen]", "323 ± 37^a^,^b %"),
    ("CC/C(=C(\\c1ccccc1)c1ccc(OCCN(C)C)cc1)c1ccccc1 [Z-Tam, tamoxifen]", "374 ± 24^a^,^b^, ^††† %"),
]
